- Tested on: White Yeast
- Run Description: Yeast challenge, white yeast
- Format: cell-based
- Condition Set: after 4 hours in mozzarella cheese brine; Table 19
Measured Parameter: White Yeast count

Per the reported White Yeast data, CCCCCCCC(=O)O [250 ppm octanoic acid, octanoic acid] has White Yeast count of <10 cfu/mL

Per the reported White Yeast data, CCCCCCCC(=O)O [1250 ppm octanoic acid, octanoic acid] has White Yeast count of <10 cfu/mL

Per the reported White Yeast data, CCCCCCCC(=O)O [125 ppm octanoic acid, octanoic acid] has White Yeast count of 60 cfu/mL

Per the reported White Yeast data, CCCCCCCC(=O)O [500 ppm octanoic acid, octanoic acid] has White Yeast count of <10 cfu/mL

###

- System: heterofermentative lactic acid bacteria (not identified)
- Run Description: “Lactic Bacteria” procedure in cheese brine
- Type: cell-based
- Condition Set: after 4 hours in blue cheese brine; Table 20; inoculum 1.2 × 10^7 (est)
Please respond with reported “Lactics” count for every item in the list.

Given item CCCCCCCC(=O)O [62.5 ppm octanoic acid, octanoic acid] , the value recorded as its “Lactics” count is 1.5 × 10^5 cfu/mL

Given item CCCCCCCC(=O)O [250 ppm octanoic acid, octanoic acid] , the value recorded as its “Lactics” count is <10 cfu/mL

Given item CCCCCCCC(=O)O [500 ppm octanoic acid, octanoic acid] , the value recorded as its “Lactics” count is <1 cfu/mL

Given item CCCCCCCC(=O)O [125 ppm octanoic acid, octanoic acid] , the value recorded as its “Lactics” count is 2.0 × 10^3 cfu/mL

###

- Test system: green mold/white yeast mixture
- Run Description: “Mold” procedure, green mold/white yeast mixture
- Format: cell-based
- Condition Set: after 4 hours in blue cheese brine; Table 20; inoculum 5.8 × 10^6 (est)
Measured Parameter: Green Mold + Yeast count

Given item CCCCCCCC(=O)O [500 ppm octanoic acid, octanoic acid] , the value recorded as its Green Mold + Yeast count is <10 cfu/mL

Given item CCCCCCCC(=O)O [62.5 ppm octanoic acid, octanoic acid] , the value recorded as its Green Mold + Yeast count is 1.0 × 10^4 cfu/mL

Given item CCCCCCCC(=O)O [125 ppm octanoic acid, octanoic acid] , the value recorded as its Green Mold + Yeast count is <10 cfu/mL

Given item CCCCCCCC(=O)O [250 ppm octanoic acid, octanoic acid] , the value recorded as its Green Mold + Yeast count is <10 cfu/mL

###

- System: Escherichia coli ATCC 11229
- Run Description: E. coli kill in acid/SLS solutions with and without salt
- Format: cell-based
- Condition Set: only the salt and no other ingredient
Measured Parameter: kill of E. coli by solution containing only the salt

Given item [Cl-].[K+] [Potassium chloride] , the value recorded as its kill of E. coli by solution containing only the salt is no bacterial kill

Given item O=S(=O)([O-])[O-].[Na+].[Na+] [Sodium sulfate] , the value recorded as its kill of E. coli by solution containing only the salt is no bacterial kill

Given item O=S(=O)([O-])[O-].[K+].[K+] [Potassium sulfate] , the value recorded as its kill of E. coli by solution containing only the salt is no bacterial kill
